Tested on: K4 kissing-loop RNA reporter;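 also: bound reporter read as fluorescence of individual clusters on recovered sequencing chips by microscopy, with normalized cluster intensities fitted with a binding model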
Assay: apparent KD of K4 kissing-loop reporter; higher = weaker reporter binding
Conditions: Eterna round: R107; input ligand: theophylline 20 uM
So I've got a bunch of sequences here, and I need their apparent KD of K4 kissing-loop reporter values.
Give bare numbers, in nM.

UGUACCGAGUCAGGAUAUGUCGUCGAAAGACGAAAUGGAGUGAUGUUCCUUAAACUGCGAAAGCAGACAGAAGGGAUUUGGUACU [FmnBS 29 U77]    738
CUCUAGGCGCUCGCGUGAGUGAUGUUUACGCGAGGACCGGUACGGCCGCCACUCGCAGACUGGGUGUAAGCGGAGCUGUAUGCCC [theeternabot_exclusion_KL_Trp_A_12]    174
GCAAAGGCCCAUCGGAAUUCGAGACCAGCACGAGGACCGGUACGGCCGCCACUCGUGCAGUGAUGUUGCACGAAUGGGAAACCGC [Oninanso]    118

Please report apparent KD of K4 kissing-loop reporter for every entry that follows.
1. UGGUUCAAUACGGCCGCCACUGGUGAGUGAUGUUUACCGUCUAUAUCAUGUGUCGAGAGCGCUAUCAGGACCGGGUAGGGACCGU [theeternabot_exclusion_KL_Trp_B_42]
2. GCUAUGGUAGGAAGGAGCGCUUAUUUAUUUUUAAGAGUGAUGUUCGAUAGUAGAUAUUUAAAGCAGGUAGGUCGCCUACUAUAGC [Arginine B K4 13]
3. ACGCGCGUGCGCUGGAAAGCGCACGCGCGUCGAGGACCGGUACGGCCGCCACUCGCUCGCGCCGAGUGAUGUUCGGCCGGCGAAC [#2 SameState - Tryptophan_A Attempt #2 (HarryS)]

a:
[837, 136, 292]

Please report apparent KD of K4 kissing-loop reporter for every entry that follows.
1. GGCACUUUUGGUAGAAACCAUCUACCUCUAUAGGAUAUGCCGAAAGGCAGAAGGAUAGACCUACAGAGUGAUGUUCUGCGUGCCU
2. AGAUGGAAUAGAAGGAGCGGCGCCAGUGAUGUUGGAUGCCGCGGGUGAAUCAUGUCAUAGUGCCAGGUAGGUCGCUAUUUCAGCU [Beinveve]
3. GCGGCGGGCCAAGGAUAUAUAUUGGAGUGAUGUUGUUCAUUUAUUUGAGCUAGUGAUGUUGGUCAGAUAGAAGGUGGCCCGCCGC [whbob_Ex_FMNB__2th216]

a:
460
103
46.2

###

So I've got a bunch of sequences here, and I need their apparent KD of MS2 coat protein values.
Tested on: MS2 coat protein
Assay: apparent KD of MS2 coat protein; designed switch direction (-1 OFF switch, 1 ON switch): -1; higher = weaker reporter binding
Details: input ligand: FMN 200 uM
One number for each entry, in nM.

CUCGGACAUGAGGAUCACCCAUGUGAGGAUAUGAUGCGAUCGUCGAAAGACGAUAGCAUCAGAAGGUACAAAUG [Fiskers Ex 1 - 22] (Eterna round: R96, puzzle: Exclusion 1)    60.2
UAAGAUUACCGAGGAUAUGGUGGUUUCUAUUAACCAGAAGGCGGACUCAACAUGAGGAUCACCCAUGUAUAAAGGGUAUUAGAU [Ex NG1 #8] (Eterna round: R96, puzzle: Exclusion NG 1)    134
AUAAUACAUGUAGGAUAUCUGCACGUUUAGUGCAGAGAAGGACAUGAGGAUCACCCAUGUAAUUAAGAUCAAUUAUUAAAUUAU [ENG1/3-D2] (Eterna round: R96, puzzle: Exclusion NG 1)    293
AUCCAGCGAGGAUAUACUUUGUUUUUUUCGUUUUGUCUCGAACAUGAGGAUCACCCAUGUAGAAGGUGCUUCAC [JR_Ex2_Sub005] (Eterna round: R97, puzzle: Exclusion 2)    60.8
GCGCGGUGAGGAUAUGCGGCGCGCGGGCGCGGGCGGGCGCGGCAGAAGGCACAUGAGGAUCACCCAUGUGGGCG [Prefect Exclusion4] (Eterna round: R97, puzzle: Exclusion 4)    109
GUUUUGAGACGGAGAUCCGACAUGAGGAUCACCCAUGUCUCACAAGCUUUUUGCUCGUCUUAUACUCCUCUGUUCUC [Elimod 44 - Jieux - Sensor, turn-off variant 1] (Eterna round: R97, puzzle: Sensor, turn-off variant 1)    17
UAAUUAAUAAGAUCAAUUAAUUAACAUGAGGAUCACCCAUGUGAGGAUAUCAGCUCGUGUAGAGCUGAGAAGGCACAAUAAUUA [ExNG3/17-C3] (Eterna round: R96, puzzle: Exclusion NG 3)    203
AAGUAGACGGUGAGGAUAUAGGUCGAAUGACCGAUUUAGAAGGUACAUGAGGAUCACCCAUGUGGGUAACGUCG [Brourd's EX4 #29] (Eterna round: R97, puzzle: Brourd's mod of Exclusion 4)    56.5

Please report apparent KD of MS2 coat protein for every entry that follows.
1. AUUUAGUGAGGAUAUGUGGCUUCGAUCGUGAGAUCGAGGCUACAGAAGGCACAUGAGGAUCACCCAUGUUCCUG [salish99_ex4_r4_113] (Eterna round: R97, puzzle: Exclusion 4)
2. ACAUGUUAUCCAUGAUAUUACAUGAGGAUCACCCAUGUUAUGGCGAUUUUGAUGUGUAAGUUUGUUGCUCGUCUUAU [JR_STOV1_Sub060] (Eterna round: R97, puzzle: Sensor, turn-off variant 1)
3. ACCAUUUACUAAUCCUCUAUACAUGAGGAUCACCCAUGUUCUGAGGAUAUCAUCGUUCGCCGCGUUGAGAAGGCAGAGCAUUCG [Ariestion] (Eterna round: R96, puzzle: Exclusion NG 3)
4. UGAUUGAUUAACAGAUUAUACAUGAGGAUCACCCAUGUAGGUCCUACGUGCCCUUUAAGCAGCUCGUCUUAUUCCCA [Sensor-V1 #69] (Eterna round: R97, puzzle: Sensor, turn-off variant 1)

a:
[75.7, 40.9, 157, 43.7]

q: Which apparent KD of MS2 coat protein reading was recorded for the sequence AAGUCGACGGUGAGGAUAUAGGUCGAACGACAGAUCUAGAAGGUACAUGAGGAUCACCCAUGUGGGUAACGUCG [Brourd's EX4 #35] (Eterna round: R97, puzzle: Brourd's mod of Exclusion 4) ?
a: 36.8
